EXPERIMENT: Determination of the log P values by HPLC (formic acid method)
Assay type: physicochemical
RECORDED CONDITIONS: reversed-phase HPLC column (C 18), reversed-phase column (C 18), acidic range (pH 3.4), 55° C.
I'd be grateful if you could share measured chromatographic logP for these entries.
Just the number, please.

Ask | I have this compound here, O=C(Nc1ccn(-c2ccccc2Cl)n1)c1ccccc1Cl [Compound I-1-20] , and I need its recorded chromatographic logP.
Reply | 2.8

Ask | What do you get for CCOc1cccc(F)c1-n1ccc(N)n1 ?
Reply | 1.47

Ask | Try O=C(NC1=NN(c2c(F)cccc2F)CC1)c1ccccc1Br [Compound I-4-2] next.
Reply | 2.8

Ask | Also need CN(C(=O)c1ccccc1Cl)c1ccn(-c2ccccc2Cl)n1 [Compound I-1-21] , thanks.
Reply | 3.14

Ask | Follow-up entry: Nc1ccn(-c2cc(F)ccc2F)n1
Reply | 1.58

Ask | Same for Cc1ccccc1-n1ccc(NC(=O)c2ccccc2Br)n1 [Compound I-1-1]
Reply | 2.79

Ask | Then this compound: Nc1ccn(-c2cccc(Cl)c2Cl)n1
Reply | 1.97

Ask | Now the same for Cc1nc(-n2ccc(N)n2)c(F)cc1F
Reply | 1.25

Ask | Quick one: O=C(Nc1ccn(-c2nccnc2F)n1)c1ccccc1Cl [Compound I-1-174]
Reply | 2.03

Ask | Record: Cc1cc(C(F)(F)F)c(C#N)c(-n2ccc(NC(=O)c3ccccc3C(F)(F)F)n2)n1 [Compound I-1-571]
Reply | 3.49

Ask | Similarly, O=C(Nc1ccn(-c2c(Cl)cccc2Cl)n1)c1ccccc1I [Compound I-1-123] ?
Reply | 3.04

Ask | Thanks! And Nc1nn(-c2ccccc2Cl)cc1Br ?
Reply | 2.23

Ask | Same for N#Cc1cncnc1-n1ccc(N)n1
Reply | 0.59

Ask | N#Cc1c(C(F)(F)F)cc(C2CC2)nc1-n1ccc(NC(=O)c2ccccc2C(F)(F)F)n1 [Compound I-1-570] , same question.
Reply | 3.99

Ask | Nc1ccn(-c2nc(F)c(F)cc2F)n1 ?
Reply | 1.15

Ask | // next record O=C(Nc1ccn(-c2nccc(-c3ccc(F)cc3)c2F)n1)c1ccccc1C(F)(F)F [Compound I-1-640]
Reply | 3.4

Ask | Now try Nc1ccn(-c2cncc(F)n2)n1 .
Reply | 0.9

Ask | Same question for O=C(Nc1cnn(-c2ccccc2Cl)n1)c1ccccc1C(F)(F)F [Compound I-2-1] please.
Reply | 3.02

* * *

Provide the reported log P of each item.
EXPERIMENT: Determination of the log P values by HPLC (formic acid method)
Type: physicochemical
RECORDED CONDITIONS: reversed-phase column (C 18), acidic range (pH 3.4), 55° C.
Simply state the number, no unit and no words.

Ask | Need log P of O=C(Nc1ccn(-c2c(F)cccc2F)n1)c1cscc1Br , thanks.
Reply | 2.61

Ask | One more compound: O=C(Nc1ccn(-c2ccccc2Cl)n1)c1ncccc1Cl
Reply | 2.79

Ask | Same read-out for O=C(Nc1ccn(-c2ncc(F)cc2F)n1)c1cnccc1C(F)(F)F ?
Reply | 2.00

Ask | Thanks! And O=C(Nc1ccn(-c2c(Cl)cccc2Cl)n1)c1ccccc1Br ?
Reply | 2.88

Ask | // next record COc1ccccc1-n1ccc(NC(=O)c2c(F)cccc2F)n1
Reply | 2.57

Ask | Entry O=C(Nc1ccn(-c2ccccc2Cl)n1)c1c(F)cccc1C(F)(F)F please
Reply | 3.05

Ask | Same thing, different compound: O=C(Nc1cnn(-c2cc(F)cnc2F)n1)c1ccccc1C(F)(F)F
Reply | 2.77

Ask | Field entry: CCc1cccc(F)c1C(=O)Nc1ccn(-c2ncc(F)cc2F)n1
Reply | 2.69

Ask | Consider next the compound O=C(Nc1ccn(-c2ncc(Cl)cc2F)n1)c1ccccc1Cl in the same way.
Reply | 2.74

Ask | Also, O=C(Nc1cnn(-c2c(F)cccc2F)n1)c1ncccc1C(F)(F)F please.
Reply | 2.78

Ask | What about this compound? N#Cc1cc(F)ccc1-n1ccc(NC(=O)c2ccccc2C(F)(F)F)n1
Reply | 2.67

Ask | Record: O=C(Nc1ccn(-c2ncc(C(F)(F)F)cc2Cl)n1)c1ccccc1I
Reply | 3.43

Ask | Same thing, different compound: O=C(Nc1ccn(-c2ccccn2)n1)c1ccccc1Cl
Reply | 2.33

Ask | Follow-up entry: O=C(Nc1ccn(-c2c(F)cccc2F)n1)c1ccccc1Br
Reply | 2.59

Ask | Try COc1ccccc1-n1ccc(NC(=O)c2ccccc2Cl)n1 next.
Reply | 2.70

Ask | Could you do the same for O=C(Nc1ccn(-c2ncc(F)cc2F)n1)c1sccc1I , please?
Reply | 2.69

Ask | Same thing, different compound: Cc1cn(-c2ccccc2Cl)nc1NC(=O)c1cccnc1Br
Reply | 2.23

Ask | Likewise for Cc1occc1C(=O)Nc1ccn(-c2c(F)cccc2F)n1 ?
Reply | 2.43

Data credit: patent US9802899B2
